# Test system: Factor 11 mRNA
# experimentNotes: Factor 11 mRNA in cynomolgus monkey liver, day 55 (Example 46)
# Type: in vivo, cynomolgus monkeys
# conditionDescription: 25 mg/kg subcutaneously, primer probe set LTS00301
Strand notation (5' to 3'): a small letter for the sugar, then the base; units joined by * are phosphorothioate-linked, units joined directly phosphodiester-linked; [ ] holds rarer units or linkages, { } end groups; capitals alone tell only the bases. e = 2'-O-(2-methoxyethyl) (MOE); [5mC] = 5-methylcytosine; d = 2'-deoxy (DNA)
Assign y to entries whose % inhibition of Factor 11 mRNA in liver relative to the PBS control meets or exceeds 70%; assign n to the rest.

Is it the case that 449707 (antisense e[5mC]*eA*e[5mC]*eA*dG*dT*dT*dT*d[5mC]*dT*dG*dG*e[5mC]*eA*eG*eG) [compound 449707] has % inhibition of Factor 11 mRNA in liver relative to the PBS control reaching or exceeding 70%? n

Is % inhibition of Factor 11 mRNA in liver relative to the PBS control at least 70%? Consider 449711 (antisense eA*e[5mC]*dA*dG*dT*dT*dT*d[5mC]*dT*dG*dG*d[5mC]*eA*eG) [compound 449711] n

Does % inhibition of Factor 11 mRNA in liver relative to the PBS control meet or surpass 70% for 445531 (antisense eG*eG*e[5mC]*eA*eT*dT*dG*dG*dT*dG*d[5mC]*dA*d[5mC]*eA*eG*eT*eT*eT) [compound 445531] ? n

Item 416858 (antisense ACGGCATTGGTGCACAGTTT; 5-10-5 gapmer, further chemistry not given here) [compound 416858] with % inhibition of Factor 11 mRNA in liver relative to the PBS control of 70% or above? y

Determine whether this substance has % inhibition of Factor 11 mRNA in liver relative to the PBS control no lower than 70%: 449708 (antisense eA*e[5mC]*eA*dG*dT*dT*dT*d[5mC]*dT*dG*dG*e[5mC]*eA*eG) [compound 449708] n

In plain terms: is recorded % inhibition of Factor 11 mRNA in liver relative to the PBS control at least 70% for 449710 (antisense e[5mC]*eA*e[5mC]*dA*dG*dT*dT*dT*d[5mC]*dT*dG*dG*d[5mC]*eA*eG*eG) [compound 449710] ? n

Entry 445522 (antisense eG*e[5mC]*eA*e[5mC]*eA*dG*dT*dT*dT*d[5mC]*dT*dG*dG*e[5mC]*eA*eG*eG*e[5mC]) [compound 445522] : is its % inhibition of Factor 11 mRNA in liver relative to the PBS control no less than 70%? y
